Biological target: SRSF protein kinase 3 (Homo sapiens);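 also: values are mean inhibition of MSSK1 (alias of SRPK3)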
Conditions: at 1 µM
# inhibition per record follows
Measured endpoint: inhibition (%)

entry_smiles=C[C@@H](Oc1cc(-n2cnc3ccc(OC4CCN(C)CC4)cc32)sc1C(N)=O)c1ccccc1Cl measured_endpoint=inhibition readout_number=-0.98
entry_smiles=COc1cccc(/C=N/Nc2ncnc3c2cnn3-c2cccc(OC)c2)c1 measured_endpoint=inhibition readout_number=-0.75
entry_smiles=O=C(Nc1ccc(Oc2ccc3[nH]c(NC(=O)c4ccccc4)nc3c2)cc1)Nc1cc(C(F)(F)F)ccc1F measured_endpoint=inhibition readout_number=50.7
entry_smiles=CCc1ccc(Oc2nccc(-c3c(-c4ccc(F)cc4)ncn3C3CCNCC3)n2)cc1 measured_endpoint=inhibition readout_number=0.07
entry_smiles=COc1ccc2ncn(-c3cc(O[C@H](C)c4ccccc4Cl)c(C(N)=O)s3)c2c1 measured_endpoint=inhibition readout_number=-0.27

----------
Target: Ephrin type-A receptor 4 (Homo sapiens);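 also: mean inhibition of EPHA4 from the GSK PKIS screening set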
Conditions: at 0.1 µM
Measured endpoint: inhibition (%)

compound=C#Cc1cccc(Nc2ncnc3ccc(OCCCCNCCS(C)(=O)=O)cc23)c1 measured_endpoint=inhibition readout_number=12.3
compound=CCS(=O)(=O)c1ccc(OC)c(Nc2ncc(-c3cccc(-c4ccccc4F)c3)o2)c1 measured_endpoint=inhibition readout_number=2.37
compound=COc1ccc2cc(-c3c(-c4ccncc4)nc(-c4ccc(S(C)(=O)=O)cc4C)n3C)ccc2c1 measured_endpoint=inhibition readout_number=9.07
compound=Fc1ccc(-c2ncn(C3CCNCC3)c2-c2ccnc(Oc3ccc(F)c(F)c3)n2)cc1 measured_endpoint=inhibition readout_number=6.95
compound=COc1ccc(C2=C(N3CCc4ccccc43)C(=O)NC2=O)cc1 measured_endpoint=inhibition readout_number=10.6
compound=COc1cc2ncn(-c3cc(OCCc4ccccc4)c(C(N)=O)s3)c2cc1OC measured_endpoint=inhibition readout_number=4.63
compound=CNC(=O)c1cncc(/C=C/c2c(C)cccc2C)c1 measured_endpoint=inhibition readout_number=25.5
compound=O=C(Nc1n[nH]c2nc(-c3ccc(O)cc3)c(Br)cc12)C1CC1 measured_endpoint=inhibition readout_number=15.2
compound=FC(F)(F)c1cccc(Nc2nccc(-c3cnn4nc(-c5ccccc5)ccc34)n2)c1 measured_endpoint=inhibition readout_number=5.08
compound=Fc1ccc(-c2ncn(C3CCNCC3)c2-c2ccnc(Oc3ccc4c(c3)OCO4)n2)cc1 measured_endpoint=inhibition readout_number=11.3
compound=NCc1ccc(-n2c(-c3nonc3N)nc3cnccc32)cc1 measured_endpoint=inhibition readout_number=9.54
compound=Fc1ccc(-c2c(-c3ccncc3)nc3n2CCS3)cc1 measured_endpoint=inhibition readout_number=6.26
compound=CCc1nccc2c1nc(-c1nonc1N)n2CC measured_endpoint=inhibition readout_number=0.87
compound=C[C@@H](Oc1cc(-n2cnc3ccc(OC4CCN(C)CC4)cc32)sc1C(N)=O)c1ccccc1Cl measured_endpoint=inhibition readout_number=7.06
compound=O=C(Nc1n[nH]c2nc(-c3ccco3)ccc12)C1CC1 measured_endpoint=inhibition readout_number=6.1
compound=COc1cc2ncn(-c3cc(OCc4ccccc4C(F)(F)F)c(C(C)=O)s3)c2cc1OC measured_endpoint=inhibition readout_number=5.55
compound=Cc1ccc(C(=O)NC2CCC2)cc1-c1ccc(C(=O)NCC2CC2)cc1 measured_endpoint=inhibition readout_number=4.02
compound=NC(=O)Cc1ccccc1Oc1nccc(-c2c(-c3ccc(F)cc3)ncn2C2CCNCC2)n1 measured_endpoint=inhibition readout_number=5.89
compound="COc1ccc2cc(-c3c(-c4ccncc4)nc(-c4ccc([S+](C)[O-])cc4C)n3C)ccc2c1 (stereo unspecified)" measured_endpoint=inhibition readout_number=-0.17
compound=NC(=O)c1cc(-c2ccc(F)cc2)cc(-c2ccncc2)c1N measured_endpoint=inhibition readout_number=10.1
compound=CS(=O)(=O)CCNCc1cc(-c2cc3c(Nc4ccc(OCc5cccc(F)c5)c(Cl)c4)ncnc3s2)cs1 measured_endpoint=inhibition readout_number=8.11
